Assay: NCI Yeast Anticancer Drug Screen. Data for the rad50 strain (AID 155);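 note: 0% = growth of vehicle-only cultures of the same strain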
Details: S. cerevisiae rad50 strain growth inhibition; at 50.0 µM; stronger effect = higher value
Procedure: Growth inhibition of yeast strains with defined genetic alterations is measured as a screen for potential anti-cancer activity. Selected strains with alterations in DNA damage repair or cell cycle control were exposed to compounds and growth inhibition was measured relative to vehicle treated controls. The strain used in this assay is rad50
The panel holds about 79,000 compounds, 15% with a hit somewhere; the sample as a whole holds those more often.
measurement.label: growth inhibition (%)
Quick reminder: number only, in %, skip the unit.

Lookup: // fetch growth inhibition given entry "CN(C)c1ccc2c(N(C)C)cc(N(C)C)[n+](C)c2c1"
Found: 7.8

Lookup: // fetch growth inhibition given entry "Cc1ccc(S(=O)(=O)Nn2c(O)c(C#N)c(-c3ccc([N+](=O)[O-])cc3)c(C#N)c2=O)cc1"
Found: 4.8

Lookup: // fetch growth inhibition given entry "CCc1c(C)c2cc(N)ccc2[nH]c1=O"
Found: -8.05

Lookup: // fetch growth inhibition given entry "CC(C)(C)N=C(N)NC#N"
Found: 9.6

Lookup: // fetch growth inhibition given entry "CN(N=O)C(=O)NCCSc1ncnc2nc[nH]c12"
Found: 9.75

Lookup: // fetch growth inhibition given entry "CCCCCCCCS(=O)(=O)N(C)C"
Found: -18.6

Lookup: // fetch growth inhibition given entry "Cc1ccc2c(O)c3c(cc2c1O)C(=O)c1ccccc1C3=O"
Found: 30.2

Lookup: // fetch growth inhibition given entry "O=C1c2ccccc2-c2nnc(-c3ccc(Cl)cc3)cc21"
Found: -29.1

Lookup: // fetch growth inhibition given entry "CC1(C)/C(=C/N=O)N(O)C(C)(C)N1O"
Found: -26.9

Lookup: // fetch growth inhibition given entry "O=C(O)CS(=O)(=O)CC(=O)O"
Found: -10.3

Lookup: // fetch growth inhibition given entry O=C1C=CC2(CCC23C=CC(=O)O3)O1 (stereo unspecified)
Found: 13

Lookup: // fetch growth inhibition given entry "Cn1cnc([N+](=O)[O-])c1Sc1nnc(C(F)(F)F)n1C"
Found: -7.6

Lookup: // fetch growth inhibition given entry C=C(CC[C@@H](C)[C@H]1CC[C@@]2(C)C3=C(CC[C@]12C)[C@@]1(C)CC[C@H](O)[C@@H](C)C1CC3)C(C)C (stereo partly specified)
Found: 10.4

Lookup: // fetch growth inhibition given entry "NCCSSCCCCSSCCN"
Found: -8.95

Lookup: // fetch growth inhibition given entry C=CCOC(=O)C1CCCCC1C(=O)OCC=C (stereo unspecified)
Found: 1.45

Lookup: // fetch growth inhibition given entry "NC(c1ccccc1)(c1ccccc1)c1ccccc1"
Found: 20.1

Lookup: // fetch growth inhibition given entry "COc1ccc(Br)c(CN2CCc3ccccc32)c1OS(=O)(=O)c1ccc(C)cc1"
Found: 13.8

Lookup: // fetch growth inhibition given entry COc1ccc(C(=O)C2CCC(C(=O)O)C2)cc1 (stereo unspecified)
Found: -25.4

Lookup: // fetch growth inhibition given entry COc1cc(C(C#N)NNC(=O)c2ccccc2O)ccc1O (stereo unspecified)
Found: 34.4

Lookup: // fetch growth inhibition given entry "COc1cc(C(=O)O)c(I)c(OC)c1OC"
Found: -10.9

Lookup: // fetch growth inhibition given entry "c1ccc2c(c1)Cc1c(-c3ccncc3)n[nH]c1-2"
Found: 48.8

Lookup: // fetch growth inhibition given entry CC1CC[N+](C)([B-](F)(F)F)CC1 (stereo unspecified)
Found: 0.85

Lookup: // fetch growth inhibition given entry "CCC(=O)c1ccc2ccccc2c1"
Found: 5.1

Lookup: // fetch growth inhibition given entry "CCOC(=O)c1ccc(N=Nc2ccc(N(CCC#N)CCC#N)cc2C)cc1"
Found: -47.5

Lookup: // fetch growth inhibition given entry "CC(=Nc1cc(Cl)cc(Cl)c1)c1ccncc1"
Found: -25.1

Lookup: // fetch growth inhibition given entry NC(Cc1cc(I)c(O)c(I)c1)C(=O)O (stereo unspecified)
Found: -0.95
